target: full-length recombinant human FYN A (Homo sapiens (Human), UniProt P06241); assay: ADP-Glo Kinase Assay of FYN kinase inhibition; assay type: biochemical; details: primary screen, initial compounds
Sequence (P06241 whole entry): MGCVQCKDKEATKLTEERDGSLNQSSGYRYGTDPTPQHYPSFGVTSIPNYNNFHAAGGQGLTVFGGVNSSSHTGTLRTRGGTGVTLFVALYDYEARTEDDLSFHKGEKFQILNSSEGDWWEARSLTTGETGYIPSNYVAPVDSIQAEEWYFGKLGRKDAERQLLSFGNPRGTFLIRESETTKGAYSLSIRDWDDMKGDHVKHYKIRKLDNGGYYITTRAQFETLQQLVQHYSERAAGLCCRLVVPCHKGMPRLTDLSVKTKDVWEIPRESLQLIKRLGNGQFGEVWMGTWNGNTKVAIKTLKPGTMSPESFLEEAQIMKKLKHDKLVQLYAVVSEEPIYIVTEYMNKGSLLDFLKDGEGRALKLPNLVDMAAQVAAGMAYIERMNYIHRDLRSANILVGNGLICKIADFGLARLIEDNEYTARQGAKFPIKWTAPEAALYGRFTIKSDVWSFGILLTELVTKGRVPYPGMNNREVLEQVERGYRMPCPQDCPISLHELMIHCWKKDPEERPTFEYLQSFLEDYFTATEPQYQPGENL
metric: IC50 (nM)

[[record]]
structure_smiles_string = "CN(C)CCCNC(=O)c1ccc(-c2cn3c(-c4cccc(O)c4)cnc3cn2)cc1"
experimental_value = 1610


A = COc1cc(-c2cc(-c3ccc(C(=O)NC4CC4)cc3)cnc2N)cc(OC)c1OC
B = COc1ccc(-c2cnc3ccc(-c4ccccc4OC)nn23)cc1OC
C = c1ccc(-c2n[nH]c3nccc(-c4ccoc4)c23)cc1
D = CN(C)CCNC(=O)c1cccc(-c2cnc3ccc(-c4cnn(C)c4)nn23)c1
Q: Sort the 4 molecules by IC50; largest first, smallest last. Dear reader, please state the labels in the requested order.
Result: C, B, D, A
